measurementTarget: Recombinant human TPH1 (MBP tagged) (Homo sapiens, UniProt P17752)
Construct: cloning full length human TPH1 cDNA in to a bacterial pMAL-c5E expression vector; made in house; host or cells: E. coli BL21 (DE3)
Sequence (P17752 whole entry): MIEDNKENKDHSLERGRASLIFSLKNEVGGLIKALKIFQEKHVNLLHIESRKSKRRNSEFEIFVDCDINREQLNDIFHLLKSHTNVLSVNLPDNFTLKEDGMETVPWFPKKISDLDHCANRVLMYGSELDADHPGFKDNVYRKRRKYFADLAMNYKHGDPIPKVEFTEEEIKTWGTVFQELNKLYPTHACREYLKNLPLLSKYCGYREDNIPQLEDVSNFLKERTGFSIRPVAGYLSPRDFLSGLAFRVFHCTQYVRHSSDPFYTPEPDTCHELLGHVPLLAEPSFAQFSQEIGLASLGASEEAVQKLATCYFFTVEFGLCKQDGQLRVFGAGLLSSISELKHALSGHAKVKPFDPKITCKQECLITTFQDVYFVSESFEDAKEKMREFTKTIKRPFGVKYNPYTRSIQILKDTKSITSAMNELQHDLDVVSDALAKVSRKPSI
experimentDescription: TPH1 in vitro inhibition assay (kinetic fluorescence)
Type: biochemical
measurementContext: read-out: TPH1 Range (TPH1 inhibition IC50)
measuredQuantity: IC50

1) CCCOc1ccc(-c2ccc([C@@H](Oc3cc(N4CCC5(CC4)CN[C@H](C(=O)O)C5)nc(N)n3)C(F)(F)F)cc2)cc1 [Example 55dd]
50 to 300 nM
2) Nc1nc(O[C@H](c2ccc(Cl)cc2-c2cc(F)c(F)c(F)c2)C(F)(F)F)cc(N2CCC3(CC2)CN[C@H](C(=O)O)C3)n1 [Example 34bf]
50 to 300 nM
3) COc1cc(-c2ccc([C@@H](Oc3cc(N4CCC5(CC4)CN[C@H](C(=O)O)C5)nc(N)n3)C(F)(F)F)cc2)ccc1C(=O)N1CCCC1 [Example 55r]
50 to 300 nM
4) CCc1ccc(-n2ccc(C)n2)c([C@@H](Oc2cc(N3CCC4(CC3)CN[C@H](C(=O)O)C4)nc(N)n2)C(F)(F)F)c1 [Example 22a]
< 50 nM
5) Cc1ccn(-c2cc(-c3ccc(C)c(CO)c3)ccc2[C@@H](Oc2cc(N3CCC4(CC3)CN[C@H](C(=O)O)C4)nc(N)n2)C(F)(F)F)n1 [Example 1cq]
< 50 nM
6) Cc1ccn(-c2cc(-c3ccc(OC(C)C)cc3)ccc2[C@@H](Oc2cc(N3CCC4(CC3)CN[C@H](C(=O)O)C4)nc(C)n2)C(F)(F)F)n1 [Example 29o]
< 50 nM
7) Cc1ccn(-c2cc(-c3ccc(C(=O)N(C)C)cc3)ccc2[C@@H](Oc2cc(N3CCC4(CC3)CN[C@H](C(=O)O)C4)nc(C)n2)C(F)(F)F)n1 [Example 29j]
< 50 nM
8) CC(C)c1cc(-c2cc(Cl)ccc2[C@@H](Oc2cc(N3CCC4(CC3)CN[C@H](C(=O)O)C4)nc(N)n2)C(F)(F)F)ccn1 [Example 34bu]
50 to 300 nM
9) Cc1ccn(-c2cc(-c3ccc(Cl)c(F)c3)ccc2[C@@H](Oc2cc(N3CCC4(CC3)CN[C@H](C(=O)O)C4)nc(N)n2)C(F)(F)F)n1 [Example 1ao]
< 50 nM
10) Nc1nc(NCc2ccc(-c3ccccc3)cc2)nc(N2CCC3(CC2)CNC(C(=O)O)C3)n1 (stereo not drawn) [Example 39b]
3000 to 10000 nM
11) Nc1nc(O[C@H](c2ccc(Cl)cc2-c2cccc(C(=O)NC3CCC(O)CC3)c2)C(F)(F)F)cc(N2CCC3(CC2)CN[C@H](C(=O)O)C3)n1 (stereo partly drawn) [Example 34cc]
50 to 300 nM
12) Nc1nc(O[C@H](c2ccc(-c3c(F)cccc3F)cc2)C(F)(F)F)cc(N2CCC3(CC2)CN[C@H](C(=O)O)C3)n1 [Example 55cf]
3000 to 10000 nM
13) Cc1ccn(-c2ccc(Br)cc2[C@@H](Oc2cc(N3CCC4(CC3)CN[C@H](C(=O)O)C4)nc(N)n2)C(F)(F)F)n1 [Example 10n]
< 50 nM
14) Cc1ccn(-c2ccc(-c3ccc(CO)cc3)cc2[C@@H](Oc2cc(N3CCC4(CC3)CN[C@H](C(=O)O)C4)nc(N)n2)C(F)(F)F)n1 [Example 19r]
< 50 nM
15) C/C=C/c1ccc(-c2cccc(S(C)(=O)=O)c2)c([C@@H](Oc2cc(N3CCC4(CC3)CN[C@H](C(=O)O)C4)nc(N)n2)C(F)(F)F)c1 [Example 50]
50 to 300 nM
16) CCCOc1ccc(-c2ccc([C@@H](Oc3cc(N4CCC5(CC4)CN[C@H](C(=O)O)C5)nc(N)n3)C(F)(F)F)c(-c3ccccc3)c2)cc1F [Example 54e]
50 to 300 nM
17) Nc1nc(O[C@H](c2ccc(Cl)cc2-c2cccc(OC3CCCC3)c2)C(F)(F)F)cc(N2CCC3(CC2)CN[C@H](C(=O)O)C3)n1 [Example 34cb]
50 to 300 nM
18) CCCCc1ccc(-c2ccc([C@@H](Oc3cc(N4CCC5(CC4)CN[C@H](C(=O)O)C5)nc(N)n3)C(F)(F)F)cc2)cc1 [Example 55ct]
300 to 3000 nM
19) CC(C)c1cccc(-c2cc(Cl)ccc2[C@@H](Oc2cc(N3CCC4(CC3)CN[C@H](C(=O)O)C4)nc(N)n2)C(F)(F)F)c1 [Example 34bi]
< 50 nM
20) Nc1nc(O[C@H](c2ccc(-c3cc(F)cc(F)c3)cc2)C(F)(F)F)cc(N2CCC3(CC2)CN[C@H](C(=O)O)C3)n1 [Example 55ap]
50 to 300 nM
21) COc1ccccc1-c1ccc([C@@H](Oc2cc(N3CCC4(CC3)CN[C@H](C(=O)O)C4)nc(N)n2)C(F)(F)F)cc1 [Example 55ar]
50 to 300 nM
22) Cc1ccn(-c2cc(-c3ccc(CO)c(C)c3)ccc2[C@@H](Oc2cc(N3CCC4(CC3)CN[C@H](C(=O)O)C4)nc(N)n2)C(F)(F)F)n1 [Example 1cr]
< 50 nM
23) Cc1cccc(C)c1-c1ccc([C@@H](Oc2cc(N3CCC4(CC3)CN[C@H](C(=O)O)C4)nc(N)n2)C(F)(F)F)cc1 [Example 55cg]
300 to 3000 nM
24) Nc1nc(O[C@H](c2ccc(Cl)cc2-c2cccc(C(=O)N3CCOCC3)c2)C(F)(F)F)cc(N2CCC3(CC2)CN[C@H](C(=O)O)C3)n1 [Example 34cg]
50 to 300 nM
